Data origin: patent US20240050428A1

tested on: MOLM-13 cells; experiment: Cell viability assay (CellTiter-Glo) in MOLM-13 cells, alone or with gilteritinib; type: cell-based; details: Homo sapiens, MOLM-13, 72 h, MOLM-13 cells, with gilteritinib 20 nM, three days, CellTiter-Glo; read-out: MOLM-13 IC50 gilteritinib
measurement_kind: IC50

Consider the following illustrative entries.
molecule	assayed_target	IC50
CC(CCCNc1ccc2c(c1)C(=O)N(C1CCC(=O)NC1=O)C2=O)C(=O)N1CCC(n2cc(-c3cnc4ccccc4n3)cn2)CC1 (stereo not drawn)	MOLM-13 cells	> 1000 nM
O=C1CCC(N2C(=O)c3ccc(NCCC[C@H]4C[C@H](n5cc(-c6cnc7c(N8CCNCC8)cccc7n6)cn5)C4)cc3C2=O)C(=O)N1 (stereo partly drawn)	MOLM-13 cells	< 10 nM
O=C1CCC(N2C(=O)c3ccc(NC[C@H]4C[C@H](n5cc(-c6nccc7cnccc67)c(C6CC6)n5)C4)cc3C2=O)C(=O)N1 (stereo partly drawn)	MOLM-13 cells	< 10 nM
CC(CCCCCCc1ccc2c(c1)C(=O)N(C1CCC(=O)NC1=O)C2)n1cc(-c2cnc3ccccc3n2)cn1 (stereo not drawn)	MOLM-13 cells	100 to 1000 nM
O=C1CCC(N2C(=O)c3ccc(NCCCCCCn4cc(-c5cnc6cccc(N7CCOCC7)c6n5)cn4)cc3C2=O)C(=O)N1 (stereo not drawn)	MOLM-13 cells	10 to 100 nM

Could you now look at the following molecule, please?
Inquiry: Form entry - test system: MOLM-13 cells; read-out: IC50; molecule: O=C1CCC(N2Cc3cc(CNC(=O)C45CC(C(=O)N6CCC(n7cc(-c8cnc9ccccc9n8)cn7)CC6)(C4)C5)ccc3C2=O)C(=O)N1 (stereo not drawn)
Reply text: < 10 nM

====

test system: MV4;11 cells; experiment: Cell viability assay (CellTiter-Glo) in MV4;11 cells, alone or with gilteritinib; type: cell-based; conditions: Homo sapiens, MV4-11, 72 h, MV4;11 cells, compound with gilteritinib 10 nM, three days, CellTiter-Glo; read-out: MV4; 11 IC50 gilteritinib
measurement_kind: IC50

See these solved cases before continuing.
compound	IC50
O=C1CCC(N2C(=O)c3ccc(NCCCCCCn4cc(-c5cnc6ccc(C7=CCNCC7)cc6n5)cn4)cc3C2=O)C(=O)N1 (stereo not shown)	< 10 nM
O=C1CCC(N2C(=O)c3ccc(NCCCCC(=O)N4CCC(n5cc(-c6cnc7ccc(N8CCNCC8)cc7n6)cn5)CC4)cc3C2=O)C(=O)N1 (stereo not shown)	< 10 nM
O=C1CCC(N2C(=O)c3ccc(NCCCCCCn4nccc4-c4cnc5ccccc5n4)cc3C2=O)C(=O)N1 (stereo not shown)	100 to 1000 nM
O=C1CCC(N2C(=O)c3ccc(NCCCCCCn4cc(-c5cnc6ccc(Br)cc6n5)cn4)cc3C2=O)C(=O)N1 (stereo not shown)	< 10 nM
O=C1CCC(N2C(=O)c3ccc(CCN4CC(n5cc(-c6cnc7ccccc7n6)c(C6CC6)n5)C4)cc3C2=O)C(=O)N1 (stereo not shown)	> 1000 nM
CN1CCN(c2ccnc(-c3cnn([C@H]4C[C@H](CCCNc5ccc6c(c5)C(=O)N(C5CCC(=O)NC5=O)C6=O)C4)c3)n2)CC1 (stereo partly shown)	10 to 100 nM

Field: next compound
Inquiry: So what's the measured IC50 for this one? Cc1nn(CCCCCCNc2ccc3c(c2)C(=O)N(C2CCC(=O)NC2=O)C3=O)c(C)c1-c1cnc2ccccc2n1 (stereo not shown)
Reply text: < 10 nM

====

test system: MOLM-13 cells; test: Cell viability assay (CellTiter-Glo) in MOLM-13 cells, alone or with gilteritinib; assay type: cell-based; settings: Homo sapiens, MOLM-13, 72 h, MOLM-13 cells, compound alone (without gilteritinib), three days, CellTiter-Glo; read-out: MOLM-13 IC50
measurement_kind: IC50

Some compounds with known IC50 results, for comparison:
compound	assayed_target	measured_value
O=C1CCC(N2C(=O)c3ccc(NCCCC4CCCC(n5cc(-c6cnc7ccccc7n6)cn5)C4)cc3C2=O)C(=O)N1 (stereo not shown) [GS-112]	MOLM-13 cells	> 1000 nM
O=C(CN1CCC(n2cc(-c3ccc4ccccc4n3)cn2)CC1)NCCCNc1ccc2c(c1)C(=O)N(C1CCC(=O)NC1=O)C2=O (stereo not shown) [GS-317]	MOLM-13 cells	> 1000 nM
O=C1CCC(N2C(=O)c3ccc(NCCCC4CC(n5cc(-c6cnc7ccc(N8CCOCC8)cc7n6)cn5)C4)cc3C2=O)C(=O)N1 (stereo not shown) [GS-173]	MOLM-13 cells	10 to 100 nM
O=C1CCC(N2C(=O)c3ccc(NCCCN4CCC(n5cc(-c6cnc7ccccc7n6)cn5)CC4)cc3C2=O)C(=O)N1 (stereo not shown) [GS-343]	MOLM-13 cells	100 to 1000 nM
O=C1CCC(N2Cc3ccc(NCCCCCCn4cc(-c5cnc6ccccc6n5)cn4)cc3C2=O)C(=O)N1 (stereo not shown) [GS-128]	MOLM-13 cells	> 1000 nM

Inquiry: Could you share which IC50 value was measured for O=C1CCC(N2C(=O)c3ccc(NCCCCCC(=O)N4CCC(n5cc(-c6cnc7ccc(N8CCOCC8)cc7n6)cn5)CC4)cc3C2=O)C(=O)N1 (stereo not shown) [GS-528] ?
Reply text: < 10 nM

Inquiry: Same lookup for O=C1CCC(N2C(=O)c3ccc(NC[C@H]4C[C@H](n5cc(-c6nccc7ccncc67)c(C6CC6)n5)C4)cc3C2=O)C(=O)N1 (stereo partly shown) [GS-284] , please.
Reply text: < 10 nM

====

system: MOLM-13 cells; assay: Cell viability assay (CellTiter-Glo) in MOLM-13 cells, alone or with gilteritinib; type: cell-based; conditions: Homo sapiens, MOLM-13, 72 h, MOLM-13 cells, with gilteritinib 20 nM, three days, CellTiter-Glo; read-out: MOLM-13 IC50 gilteritinib
measurement_kind: IC50

Please review the following examples before continuing.
compound	measurement_kind	measured_value
O=C1CCC(N2C(=O)c3ccc(NCCC[C@H]4C[C@H](n5cc(-c6ccccc6)cn5)C4)cc3C2=O)C(=O)N1 (stereo partly shown) [GS-232]	IC50	> 1000 nM
CN(c1ccccc1)C1CN(C(=O)CCCCCNc2ccc3c(c2)C(=O)N(C2CCC(=O)NC2=O)C3=O)C1 (stereo not shown) [GS-337]	IC50	100 to 1000 nM
O=C1CCC(N2Cc3ccc(CCCC(=O)N4CCC(n5cc(-c6cnc7ccccc7n6)cn5)CC4)cc3C2=O)C(=O)N1 (stereo not shown) [GS-158]	IC50	> 1000 nM
O=C1CCC(N2C(=O)c3ccc(NC[C@H]4C[C@@H](n5cc(-c6cnc7ccccc7n6)cn5)C4)cc3C2=O)C(=O)N1 (stereo partly shown) [GS-179]	IC50	100 to 1000 nM
N#Cc1cccc2ncc(-c3cnn(CCCCCCNc4ccc5c(c4)C(=O)N(C4CCC(=O)NC4=O)C5=O)c3)nc12 (stereo not shown) [GS-165]	IC50	10 to 100 nM
CN1CCN(c2cccc3ncc(-c4cnn(CCCCCCNc5ccc6c(c5)C(=O)N(C5CCC(=O)NC5=O)C6=O)c4)nc23)CC1 (stereo not shown) [GS-383]	IC50	> 1000 nM

Inquiry: May I ask what IC50 has been recorded for O=C1CCC(N2C(=O)c3ccc(OCCCCCCn4cc(-c5cnc6ccccc6n5)cn4)cc3C2=O)C(=O)N1 (stereo not shown) [GS-354] ?
Reply text: > 1000 nM

====

compounds and their reported pIC50
tested on: MOLM-13 cells; experiment: Cell viability assay (CellTiter-Glo) in MOLM-13 cells, alone or with gilteritinib; type: cell-based; details: Homo sapiens, MOLM-13, 72 h, MOLM-13 cells, with gilteritinib 20 nM, three days, CellTiter-Glo; read-out: MOLM-13 IC50 gilteritinib
pIC50: −log10 of the molar value.

Below, 3 compounds whose answers are already recorded.
compound	measurement_kind	measured_value
O=C1CCC(N2C(=O)c3ccc(NCCCCCCNc4ncc(-c5cnc6ccccc6n5)s4)cc3C2=O)C(=O)N1 (stereo not shown) [GS-385]	pIC50	7.00 to 8.00
O=C1CCC(N2Cc3ccc(CCCCCCn4cc(-c5cnc6ccccc6n5)cn4)cc3C2=O)C(=O)N1 (stereo not shown) [GS-106]	pIC50	7.00 to 8.00
O=C1CCC(N2C(=O)c3ccc(NCCCN4CCC(N5CCN(c6ccccn6)CC5)C4)cc3C2=O)C(=O)N1 (stereo not shown) [GS-344]	pIC50	< 6.00

Inquiry: Which pIC50 is listed for O=C1CCC(N2C(=O)c3ccc(NCCCCCC(=O)N4CCC(n5cc(-c6cnc7cccc(N8CCOCC8)c7n6)cn5)CC4)cc3C2=O)C(=O)N1 (stereo not shown) [GS-034] ?
Reply text: > 8.00

====

tested on: MOLM-13 cells; assay: Cell viability assay (CellTiter-Glo) in MOLM-13 cells, alone or with gilteritinib; assay type: cell-based; details: Homo sapiens, MOLM-13, 72 h, MOLM-13 cells, compound alone (without gilteritinib), three days, CellTiter-Glo; read-out: MOLM-13 IC50
pIC50: −log10 of the molar value.
Items are presented alongside their recorded pIC50.

compound	measured_value
O=C1CCC(N2C(=O)c3ccc(NCCc4ccc(-n5cc(-c6cnc7ccccc7n6)cn5)cc4)cc3C2=O)C(=O)N1 (stereo not shown)	< 6.00
O=C1CCC(N2C(=O)c3ccc(NCCCN4CCC(N5CCN(c6ccccn6)CC5)C4)cc3C2=O)C(=O)N1 (stereo not shown)	< 6.00
O=C1CCC(N2C(=O)c3ccc(NCCC[C@H]4C[C@H](n5cc(-c6cnc7ccc(C8CCNCC8)cc7n6)cn5)C4)cc3C2=O)C(=O)N1 (stereo partly shown)	6.00 to 7.00
Cc1ccc(-c2cn([C@H]3C[C@H](CNc4ccc5c(c4)C(=O)N(C4CCC(=O)NC4=O)C5=O)C3)nc2C2CC2)nc1 (stereo partly shown)	6.00 to 7.00
CC(CCCCCCc1ccc2c(c1)C(=O)N(C1CCC(=O)NC1=O)C2)n1cc(-c2cnc3ccccc3n2)cn1 (stereo not shown)	< 6.00
Cc1ccnc(-c2cn([C@H]3C[C@H](CNc4ccc5c(c4)C(=O)N(C4CCC(=O)NC4=O)C5=O)C3)nc2C2CC2)c1 (stereo partly shown)	7.00 to 8.00

Switching to the query record.
Inquiry: # lookup: pIC50 of O=C1CCC(N2C(=O)c3ccc(NCCCCC(=O)N4CCC(n5cc(-c6cnc7ccccc7n6)cn5)CC4)cc3C2=O)C(=O)N1 (stereo not shown)
Reply text: < 6.00
